Target: CYP3A4 (Homo sapiens, UniProt P08684)
Sequence (P08684 whole entry): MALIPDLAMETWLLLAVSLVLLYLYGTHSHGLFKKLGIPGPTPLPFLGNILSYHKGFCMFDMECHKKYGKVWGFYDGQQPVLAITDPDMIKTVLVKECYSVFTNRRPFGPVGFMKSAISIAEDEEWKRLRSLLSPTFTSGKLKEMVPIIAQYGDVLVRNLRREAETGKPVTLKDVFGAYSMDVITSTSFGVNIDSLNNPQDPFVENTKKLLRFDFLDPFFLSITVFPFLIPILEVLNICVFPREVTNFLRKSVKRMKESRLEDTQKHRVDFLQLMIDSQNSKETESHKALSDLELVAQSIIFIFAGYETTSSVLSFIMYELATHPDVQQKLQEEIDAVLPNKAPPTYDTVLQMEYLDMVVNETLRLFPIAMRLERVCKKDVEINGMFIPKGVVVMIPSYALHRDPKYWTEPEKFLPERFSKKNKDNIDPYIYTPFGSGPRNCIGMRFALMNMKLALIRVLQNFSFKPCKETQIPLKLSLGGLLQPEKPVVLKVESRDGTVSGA
Assay: Ratio of IC50 for human CYP3A4 without preincubation to IC50 for human CYP3A4 preincubated for 30 mins
Conditions: read-out: Ratio IC50
Result Type: IC50 shift
Quick one: just the number, no unit, thanks!

// recorded IC50 shift for COCCCc1cc(CN(C(=O)[C@@H](CN)Cc2ccc(OCCOc3c(Cl)cc(C)cc3Cl)cc2)C2CC2)c(Cl)cn1 : 90

compound COCCc1ccc(Cl)c(CN(C(=O)CCc2ccc(OCCOc3c(Cl)cc(C)cc3Cl)cc2)C2CC2)c1 , IC50 shift observed: 40

The recorded IC50 shift for entry COCCc1ccc(Cl)c(CN(C(=O)[C@@H](CN)Cc2ccc(OCCOc3c(Cl)cc(C)cc3Cl)cc2)C2CCC2)c1 equals 180

The compound Cc1cc(Cl)c(OCCOc2ccc(C[C@H](CN)C(=O)N(Cc3cc(CCCC#N)cc4cccnc34)C3CC3)cc2)c(Cl)c1 showed IC50 shift equal to 140

IC50 shift recorded for this compound, COCCc1ccc(Cl)c(CN(CC2CC2)C(=O)[C@@H](CN)Cc2ccc(OCCOc3c(Cl)cc(C)cc3Cl)cc2)c1 , is 100

Form field IC50 shift, entry COCCCc1cc(CN(C(=O)[C@@H](CN)Cc2ccc(OCCOc3c(Cl)cc(C)cc3Cl)cc2)C2CC2)c2ccccc2n1 : 120

Measured IC50 shift of COCCc1ccc(Cl)c(CN(C(=O)[C@@H](CN)Cc2ccc(CCOc3c(Cl)cc(C)cc3Cl)cc2)C2CC2)c1 : 60

For this compound ( COCCCc1ccc(Cl)c(CN(C(=O)[C@@H](CN)Cc2ccc(OCCOc3c(Cl)cc(C)cc3Cl)cc2)C2CC2)c1 ), measured IC50 shift is 110

Noted for COCCc1ccc(Cl)c(CN(C(=O)[C@@H](CN)Cc2ccc(OCCOc3c(Cl)cc(C)cc3Cl)cc2)C2CC2)c1 : its IC50 shift reads 110

IC50 shift for COCCc1ccc(Cl)c(CN(CC2CCC2)C(=O)[C@@H](CN)Cc2ccc(OCCOc3c(Cl)cc(C)cc3Cl)cc2)c1 is 130

Sure, the documented IC50 shift for COCCc1ccc(Cl)c(CN(C[C@@H](CN)Cc2ccc(OCCOc3c(Cl)cc(C)cc3Cl)cc2)C2CC2)c1 is 5.8

The compound identified as CC(=O)N(C)Cc1ccc(Cl)c(CN(C(=O)[C@@H](CN)Cc2ccc(OCCOc3c(Cl)cc(C)cc3Cl)cc2)C2CC2)c1 registered its IC50 shift at 35

Looking up COCCCc1cc(CN(C(=O)[C@@H](CN)Cc2ccc(OCCOc3c(Cl)cc(C)cc3Cl)cc2)C2CC2)c(Cl)c[n+]1[O-] , I see its IC50 shift listed as 70

# compound COCCc1ccc(Cl)c(CN(C)C(=O)[C@@H](CN)Cc2ccc(OCCOc3c(Cl)cc(C)cc3Cl)cc2)c1 ; its IC50 shift = 40

Per the record, COCCCc1cc(CN(C(=O)[C@@H](CN)Cc2ccc(OCCOc3c(Cl)cc(C)cc3Cl)cc2)C2CC2)cc(OCCOC)c1 has IC50 shift of 1.5

---

Target: Renin (Homo sapiens, UniProt P00797)
Experiment: Inhibition of human recombinant renin in presence of pH 7.4 buffer
Result Type: IC50
Please report the result as a number followed by the unit.

According to the records, this molecule COCCCc1ccc(Cl)c(CN(C(=O)[C@@H](CN)Cc2ccc(OCCOc3c(Cl)cc(C)cc3Cl)cc2)C2CC2)c1 displays IC50 of 0.09 nM

---

Molecular target: Renin (Homo sapiens)
Sequence (P00797 whole entry): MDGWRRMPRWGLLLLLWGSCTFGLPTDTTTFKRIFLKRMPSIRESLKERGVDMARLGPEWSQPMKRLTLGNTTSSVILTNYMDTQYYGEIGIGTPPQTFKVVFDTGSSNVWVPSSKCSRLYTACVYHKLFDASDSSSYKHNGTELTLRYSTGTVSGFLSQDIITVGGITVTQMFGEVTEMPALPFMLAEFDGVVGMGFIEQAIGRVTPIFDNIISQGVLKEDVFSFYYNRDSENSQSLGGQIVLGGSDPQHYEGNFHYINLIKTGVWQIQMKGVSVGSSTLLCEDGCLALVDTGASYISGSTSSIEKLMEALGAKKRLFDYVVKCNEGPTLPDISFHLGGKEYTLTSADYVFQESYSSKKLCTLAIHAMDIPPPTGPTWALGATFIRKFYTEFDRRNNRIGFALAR
Experiment: Inhibition of human recombinant renin in presence of plasma by immunoassay
Type: cell-free
Result Type: pIC50
Expect pIC50 as a plain number equal to -log10 of the molar concentration.

So, COCCCc1ccc(Cl)c(CN(C(=O)[C@@H](CN)Cc2ccc(OCCOc3c(Cl)cc(C)cc3Cl)cc2)C2CC2)c1 ? Its pIC50 was 8.62

---

Test: Clearance in Sprague-Dawley rat at 30 mg/kg, po
Assay type: ADME, organism-based
Parameters: dose 30 mg/kg, route oral
Details: in vivo
Result Type: CL/F (L/h/kg)
# value in L/h/kg; strip the unit string

For record COCCCc1ccc(Cl)c(CN(C(=O)[C@@H](CN)Cc2ccc(OCCOc3c(Cl)cc(C)cc3Cl)cc2)C2CC2)c1 the listed CL/F is 2.1

---

Target: CYP3A4 (Homo sapiens)
Assay: Inhibition of CYP3A4 in human liver microsome at 3 uM
Format: ADME
Details: liver microsomes
Result Type: inhibition at 3 µM (%)
# output: bare number, implied unit %

inhibition at 3 µM measured on COCCCc1ccc(Cl)c(CN(C(=O)[C@@H](CN)Cc2ccc(OCCOc3c(Cl)cc(C)cc3Cl)cc2)C2CC2)c1 = 7

---

Experiment: Half life in Sprague-Dawley rat at 30 mg/kg, po
Format: ADME, organism-based
Design: dose 30 mg/kg, route oral
Conditions: in vivo
Result Type: half-life
Give me the value, and tack the unit on after it.

Field half-life (entry COCCCc1ccc(Cl)c(CN(C(=O)[C@@H](CN)Cc2ccc(OCCOc3c(Cl)cc(C)cc3Cl)cc2)C2CC2)c1 ) reads 6 h

---

Assay: Oral bioavailability in Sprague-Dawley rat at 30 mg/kg
Assay type: ADME, organism-based
Conditions: in vivo
Result Type: bioavailability (%)
Respond with the bare value in %.

Value of bioavailability reported for the compound COCCCc1ccc(Cl)c(CN(C(=O)[C@@H](CN)Cc2ccc(OCCOc3c(Cl)cc(C)cc3Cl)cc2)C2CC2)c1 is 41

---

Assay: Metabolic stability in human liver microsome assessed as compound remaining at 50 uM after 1 hr
Assay type: ADME
Conditions: liver microsomes, read-out: Stability
Result Type: remaining at 1 h, 50 µM (%)
Give the value, in units of %, as a plain number.

Summary for this compound, COCCCc1ccc(Cl)c(CN(C(=O)[C@@H](CN)Cc2ccc(OCCOc3c(Cl)cc(C)cc3Cl)cc2)C2CC2)c1 : remaining at 1 h, 50 µM is 98
